Tested on: IMR-32
Assay: Cytotoxicity against human IMR32 cells after 48 hrs by SRB assay
Format: cell-based
Conditions: IMR-32, 48 h
recorded endpoint: IC50

Some compounds with recorded IC50:
{"columns": ["smiles", "result"],
 "data": [
  ["CC(=O)N1c2cc([N+](=O)[O-])ccc2[C@@H]2[C@@H](C[C@@H]3O[C@H]23)[C@H]1c1ccccc1", "56 µM"],
  ["CC(=O)N1c2ccccc2[C@H]2[C@@H](O)[C@H](N=[N+]=[N-])C[C@H]2[C@H]1c1ccccc1", "> 100 µM"],
  ["CC(=O)N1c2ccccc2[C@H]2C=CC[C@H]2[C@H]1c1cccc(Br)c1", "> 100 µM"],
  ["CC(=O)N1c2ccccc2[C@@H]2[C@@H](C[C@@H]3O[C@H]23)[C@H]1c1ccc(Cl)cc1", "> 100 µM"]
]}

Given the entry C=CCO[C@@H]1[C@@H]2c3ccccc3N(C(C)=O)[C@H](c3ccc(Cl)cc3)[C@@H]2C[C@H]1N=[N+]=[N-] , report its measured IC50.
66.5 µM

One more compound: Clc1ccc([C@H]2Nc3ccccc3[C@H]3C=CC[C@H]32)cc1
> 100 µM

Okay, and O[C@@H]1[C@@H]2c3ccccc3N[C@H](c3cccc(Br)c3)[C@@H]2C[C@@H]1O ?
> 100 µM

Moving on to CC(=O)N1c2ccccc2[C@H]2C=CC[C@H]2[C@H]1c1ccc(Cl)cc1
94.7 µM

###

System: IMR-32
Test: Cytotoxicity against human IMR32 cells after 48 hrs by SRB assay
Assay type: cell-based
Settings: IMR-32, 48 h
recorded endpoint: IC50 (µM)
Number in µM, nothing else.

Some compounds with recorded IC50:
{"columns": ["compound", "recorded endpoint", "measure unit", "measured number"],
 "data": [
  ["COc1cccc2c1C(=O)c1c(O)c3c(c(O)c1C2=O)C[C@@](O)(C(=O)CO)C[C@@H]3O[C@H]1C[C@H](N)[C@H](O)[C@H](C)O1", "IC50", "µM", 8.49],
  ["C=CCO[C@H]1C(n2cc(-c3ccccc3)nn2)C[C@@H]2[C@H]1c1ccccc1N(C(C)=O)[C@@H]2c1ccccc1 (single isomer, unassigned)", "IC50", "µM", 65],
  ["O[C@@H]1[C@@H]2c3ccccc3N[C@H](c3ccc(Cl)cc3)[C@@H]2C[C@@H]1O", "IC50", "µM", 64.6],
  ["Brc1ccc2c(c1)[C@H]1C=CC[C@H]1[C@@H](c1ccccc1)N2", "IC50", "µM", 94.4]
]}

Request body: readout IC50, system IMR-32, query CC(=O)N1c2ccc(Br)cc2[C@H]2C=CC[C@H]2[C@H]1c1ccccc1 . Return the value.
89.9

Can you check O=[N+]([O-])c1ccc2c(c1)N[C@H](c1ccccc1)[C@@H]1C[C@H](O)[C@H](O)[C@H]21 next?
57.1

Try this compound next: CC(=O)N1c2ccccc2[C@H]2C=CC[C@H]2[C@H]1c1ccccc1
61.6

###

Collected pIC50 values appear next to each entry.
System: IMR-32
Assay: Cytotoxicity against human IMR32 cells after 48 hrs by SRB assay
Type: cell-based
Conditions: IMR-32, 48 h
pIC50: −log10 of the molar value.

Some compounds with recorded pIC50:
{"columns": ["smiles", "target desc", "pIC50"],
 "data": [
  ["O[C@@H]1[C@@H]2c3ccc(F)cc3N[C@H](c3ccccc3)[C@@H]2C[C@@H]1O", "IMR-32", "< 4.00"],
  ["COC(=O)C[C@@H]1[C@H](C(=O)OC)c2ccccc2N(C(C)=O)[C@@H]1c1ccccc1", "IMR-32", 4.09]
]}

Proceed to the following item.
Recorded pIC50 for CC(=O)N1c2ccccc2[C@H]2[C@@H](O)[C@H](N=[N+]=[N-])C[C@H]2[C@H]1c1cccc(Br)c1 , please?
< 4.00

###

System: IMR-32
Assay: Cytotoxicity against human IMR32 cells after 48 hrs by SRB assay
Assay type: cell-based
Details: IMR-32, 48 h
pIC50: −log10 of the molar value.
# pIC50 per record follows

Solved entries:
{"columns": ["smiles", "pIC50"],
 "data": [
  ["O[C@@H]1[C@@H]2c3ccccc3N[C@H](c3ccccc3)[C@@H]2C[C@@H]1O", "< 4.00"],
  ["Cc1ccccc1[C@H]1Nc2ccccc2[C@H]2[C@@H](O)[C@@H](O)C[C@H]21", "< 4.00"],
  ["O=[N+]([O-])c1ccc2c(c1)N[C@H](c1ccccc1)[C@@H]1CC=C[C@H]21", "< 4.00"],
  ["Fc1ccc2c(c1)N[C@H](c1ccccc1)[C@@H]1CC=C[C@H]21", "< 4.00"]
]}

# lookup: pIC50 of Cc1ccccc1[C@H]1Nc2ccccc2[C@H]2C=CC[C@H]21
4.06

Another compound: CC(=O)N1c2cc([N+](=O)[O-])ccc2[C@H]2C=CC[C@H]2[C@H]1c1ccccc1
< 4.00

Also check C=CCO[C@@H]1[C@@H]2c3ccccc3N(C(C)=O)[C@H](c3ccccc3)[C@@H]2C[C@H]1N=[N+]=[N-]
4.76

Please answer likewise for CC(=O)N1c2ccccc2[C@@H]2[C@@H](C[C@@H]3O[C@H]23)[C@H]1c1ccccc1
< 4.00
